biological target: Nucleotide-binding oligomerization domain-containing protein 1, Homo sapiens (UniProt Q9Y239); assay: inhibition of NOD1-driven NF-kB reporter – cell-based, luminescence, uHTS, primary screen (AID 1578)
Sequence (Q9Y239 whole entry, the tested form may be a part): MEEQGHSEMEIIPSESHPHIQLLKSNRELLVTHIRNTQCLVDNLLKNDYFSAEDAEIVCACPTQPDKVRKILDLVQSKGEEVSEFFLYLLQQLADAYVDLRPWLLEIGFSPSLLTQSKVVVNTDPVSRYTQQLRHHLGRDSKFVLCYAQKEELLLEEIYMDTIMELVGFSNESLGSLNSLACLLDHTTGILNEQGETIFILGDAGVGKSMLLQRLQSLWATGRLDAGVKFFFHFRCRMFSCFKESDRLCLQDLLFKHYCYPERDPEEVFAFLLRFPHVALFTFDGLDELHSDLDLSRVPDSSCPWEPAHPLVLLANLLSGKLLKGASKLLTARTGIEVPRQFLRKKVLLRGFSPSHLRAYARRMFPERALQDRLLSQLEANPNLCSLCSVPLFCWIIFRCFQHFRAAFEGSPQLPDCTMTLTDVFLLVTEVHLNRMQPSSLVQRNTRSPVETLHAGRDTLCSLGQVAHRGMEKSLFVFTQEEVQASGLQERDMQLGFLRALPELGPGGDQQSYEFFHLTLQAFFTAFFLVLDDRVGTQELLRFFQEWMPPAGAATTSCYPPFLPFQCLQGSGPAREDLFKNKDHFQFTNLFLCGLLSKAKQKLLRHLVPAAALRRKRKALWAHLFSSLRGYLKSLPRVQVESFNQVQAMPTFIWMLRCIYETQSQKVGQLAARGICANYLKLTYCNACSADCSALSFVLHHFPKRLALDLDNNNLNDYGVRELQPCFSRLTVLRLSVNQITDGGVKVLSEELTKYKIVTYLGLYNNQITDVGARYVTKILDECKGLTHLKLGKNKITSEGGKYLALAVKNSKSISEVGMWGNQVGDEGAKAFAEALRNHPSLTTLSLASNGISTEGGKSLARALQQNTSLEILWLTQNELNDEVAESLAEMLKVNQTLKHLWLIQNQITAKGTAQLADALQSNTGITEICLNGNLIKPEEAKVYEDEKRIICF
In all, about 290,000 compounds went through this assay and about 3,000 (1%) were called active. Shown is part of a subset that was picked to be rich in actives.
quantity name: outcome

CC(C)CC(NC(=O)CCCNC(=O)CCC(=O)OC1O[C@H]2OC3(C)CC[C@H]4[C@H](C)CCC(C1C)C24OO3)C(=O)O (stereo partly drawn) ... active
CCCCCn1c(=O)c(C(=O)Nc2cnccn2)c(O)c2ccccc21 ... active
CCCCCCn1c(=O)c(C(=O)Nc2cnccn2)c(O)c2ccccc21 ... active
